pKi: −log10 of the molar value.
Collected set of pKi measured with Histamine H3 receptor (Cavia porcellus) across studies.

Worked cases, answers included:
compound string | pKi
Nc1cc(CN2CCC(C(=O)N3CCN(Cc4cc(F)ccc4Br)CC3)CC2)ccn1 | 7.46 to 9.70
Nc1cc(CN2CCC(C(=O)N3CCC(c4noc5cc(F)ccc45)CC3)CC2)ccn1 | 7.48 to 9.60
O=C(NCCc1ccccc1)c1cccc(CN2CCN(C(=O)C3CCN(Cc4ccncc4)CC3)CC2)c1 | 7.46 to 9.70
CO/N=C(/c1ccc(Cl)cc1)C1CCN(C(=O)C2CCN(Cc3ccnc(N)c3)CC2)CC1 | 7.80 to 9.08
CON=C(c1cccc(S(=O)(=O)N(C)C)c1)C1CCN(C(=O)C2CCN(Cc3ccnc(N)c3)CC2)CC1 | 7.48 to 9.60
Cc1noc(C)c1CN1CCN(C(=O)C2CCN(Cc3ccnc(N)c3)CC2)CC1 | 7.46 to 9.70

INPUT: Find the recorded pKi belonging to CON=C(c1csc(C)n1)C1CCN(C(=O)C2CCN(Cc3ccnc(N)c3)CC2)CC1 and report it.
OUTPUT: 7.48 to 9.60

INPUT: Data request, read-out pKi, for CO/N=C(/c1ccc(Cl)cc1)C1CCN(C(=O)C2CCN(Cc3ccncc3)CC2)CC1
OUTPUT: 7.80 to 9.60

INPUT: Name the recorded pKi for CO/N=C(/c1ccccn1)C1CCN(C(=O)C2CCN([C@H](C)c3ccnc(N)c3)CC2)CC1 .
OUTPUT: 7.80 to 9.08

INPUT: pKi for CCON=C(c1ccc(F)cc1F)C1CCN(C(=O)C2CCN(Cc3ccnc(N)c3)CC2)CC1 ?
OUTPUT: 7.48 to 9.60

INPUT: GET /values?readout=pKi&item= CON=C(c1ccc(Cl)cc1)C1CCN(C(=O)C2CCN(Cc3ccnc(N)c3)CC2)CC1
OUTPUT: 7.80 to 9.60

INPUT: So what does the record say about pKi for CON=C(c1ccc(Cl)cc1)C1CCN(C(=O)N2CCN(Cc3ccnc(N)c3)CC2)CC1 ?
OUTPUT: 7.48 to 9.60

INPUT: Using the record for CON=C(c1ccc(Cl)cc1)C1CCN(C(=O)C2(O)CCN(Cc3ccnc(N)c3)CC2)CC1 , report its pKi.
OUTPUT: 7.48 to 9.60
